Cited source: patent US5250283A

- EXPERIMENT_SUMMARY: Plasma concentration after i.v. IOP or TFA-IOP in rats
- Type: in vivo
- CONDITION_DETAILS: plasma, iv, 100 umol/kg, rat, 40 min
Counter-ions that a name gives are not always drawn.
OUTCOME_MEASURE: concentration at 40 min (µM)
Write the answer as a number in µM, unit excluded.

Using known records, supply concentration at 40 min for CCC(Cc1c(I)cc(I)c(NC(=O)C(F)(F)F)c1I)C(=O)O (stereo not shown) [TFA-IOP, N-trifluoroacetyl-iopanoic acid]
510

###

- EXPERIMENT_SUMMARY: Biliary excretion and bile flow after i.v. TFA-IOP (100 umol/kg) or IOP (100 in text, 104 umol/kg in tables) in rats
- CONDITION_DETAILS: rat, bile, iv, 100 umol/kg
Where a name gives a salt, the structure may show the parent alone.
OUTCOME_MEASURE: Cmax at 1.5 h (µM)
Give your result in µM as a bare value.

INSERT INTO measurements (molecule, quantity_unit, val) VALUES
  ('CCC(Cc1c(I)cc(I)c(N)c1I)C(=O)O (centres unmarked) [IOP, iopanoic acid, reference compound]', 'µM', 10000);

Now, please, on to the next molecule.
Give Cmax at 1.5 h for the following molecule: CCC(Cc1c(I)cc(I)c(NC(=O)C(F)(F)F)c1I)C(=O)O (centres unmarked) [TFA-IOP, N-trifluoroacetyl-iopanoic acid]
0.5

###

- EXPERIMENT_SUMMARY: Tissue distribution 90 min after i.v. TFA-IOP (100 umol/kg) or IOP (100 in text, 104 umol/kg in tables) in rats
- Format: in vivo
- CONDITION_DETAILS: rat, lung, iv, 100 umol/kg, i.v., 90 min, liver standard curve used, may be erroneous, read-out: Lung concentration
Structures can show the parent of a compound that is named as a salt.
OUTCOME_MEASURE: concentration at 1.5 h (µM)
Give the number; µM is assumed, so skip it.

INSERT INTO results (compound, val) VALUES
  ('CCC(Cc1c(I)cc(I)c(NC(=O)C(F)(F)F)c1I)C(=O)O (centres unmarked) [TFA-IOP, N-trifluoroacetyl-iopanoic acid]', 278);

Supply recorded concentration at 1.5 h for CCC(Cc1c(I)cc(I)c(N)c1I)C(=O)O (centres unmarked) [IOP, iopanoic acid, reference compound] here.
325

###

- EXPERIMENT_SUMMARY: Biliary excretion and bile flow after i.v. TFA-IOP (100 umol/kg) or IOP (100 in text, 104 umol/kg in tables) in rats
- CONDITION_DETAILS: rat, in vivo, iv, 100 umol/kg, Percentage of dose running total in bile, through 40-50 min
Structures can show the parent of a compound that is named as a salt.
# dose excreted at 50 min listing for each entry below
Form entry: value (%) — number only.

INSERT INTO measurements (compound, outcome_measure, val) VALUES
  ('CCC(Cc1c(I)cc(I)c(NC(=O)C(F)(F)F)c1I)C(=O)O (centres unmarked) [TFA-IOP, N-trifluoroacetyl-iopanoic acid]', 'dose excreted at 50 min', 24.7);

Consider the compound CCC(Cc1c(I)cc(I)c(N)c1I)C(=O)O (centres unmarked) [IOP, iopanoic acid, reference compound] . State its measured dose excreted at 50 min.
9.92

###

- EXPERIMENT_SUMMARY: Biliary excretion and bile flow after i.v. TFA-IOP (100 umol/kg) or IOP (100 in text, 104 umol/kg in tables) in rats
- CONDITION_DETAILS: rat, bile, iv, 100 umol/kg
Where a name gives a salt, the structure may show the parent alone.
OUTCOME_MEASURE: concentration at 1 h (µM)
Could you give me the number in µM? Just the number is fine.

INSERT INTO results (compound, val) VALUES
  ('CCC(Cc1c(I)cc(I)c(N)c1I)C(=O)O (centres unmarked) [IOP, iopanoic acid, reference compound]', 7320);

Answer with the recorded concentration at 1 h for the compound listed here: CCC(Cc1c(I)cc(I)c(NC(=O)C(F)(F)F)c1I)C(=O)O (centres unmarked) [TFA-IOP, N-trifluoroacetyl-iopanoic acid]
8460

###

- EXPERIMENT_SUMMARY: Biliary excretion and bile flow after i.v. TFA-IOP (100 umol/kg) or IOP (100 in text, 104 umol/kg in tables) in rats
- CONDITION_DETAILS: rat, in vivo, iv, 100 umol/kg, Percentage of dose in bile sample, 80-90 min
Structures can show the parent of a compound that is named as a salt.
OUTCOME_MEASURE: dose excreted at 1.5 h (%)
Quick reminder: number only, in %, skip the unit.

INSERT INTO measurements (compound, val) VALUES
  ('CCC(Cc1c(I)cc(I)c(N)c1I)C(=O)O (centres unmarked) [IOP, iopanoic acid, reference compound]', 2.21);

// below: dose excreted at 1.5 h requested for another compound
Note down dose excreted at 1.5 h recorded for CCC(Cc1c(I)cc(I)c(NC(=O)C(F)(F)F)c1I)C(=O)O (centres unmarked) [TFA-IOP, N-trifluoroacetyl-iopanoic acid]
2.77

###

- EXPERIMENT_SUMMARY: Biliary excretion and bile flow after i.v. TFA-IOP (100 umol/kg) or IOP (100 in text, 104 umol/kg in tables) in rats
- CONDITION_DETAILS: rat, in vivo, iv, 100 umol/kg, Percentage of dose running total in bile, through 60-70 min
Where a name gives a salt, the structure may show the parent alone.
Readings of dose excreted at 70 min for the listed compounds
// unit must come after the numeric part

INSERT INTO assay_data (compound, val) VALUES
  ('CCC(Cc1c(I)cc(I)c(N)c1I)C(=O)O (centres unmarked) [IOP, iopanoic acid, reference compound]', '13.4%');

# ---- query compound ----
Read the entry CCC(Cc1c(I)cc(I)c(NC(=O)C(F)(F)F)c1I)C(=O)O (centres unmarked) [TFA-IOP, N-trifluoroacetyl-iopanoic acid] and write its reported dose excreted at 70 min.
33.6%
